tested on: NOMO1; assay: cell viability relative to DMSO control; higher = less cytotoxic; conditions: RPMI 5 mM glucose + 10% FBS; 48 h; 0.19 µM
measured metric: cell viability (%)
Numbers only, in %.

Examples from the recorded data:
# compound, measured metric, result unit, recorded measurement
records = [
    ("C[S+](=O)([O-])N1CCc2c(-c3cnc(N)nc3)nc(N3CCOCC3)nc21", "cell viability", "%", 99.5),
    ("C/C=C(/C)C(=O)O[C@H]1C(C)=C[C@]23C(=O)[C@@H](C=C(CO)[C@@H](O)[C@]12O)[C@H]1[C@@H](C[C@H]3C)C1(C)C", "cell viability", "%", 79.1),
    ("O=C(NC[C@H](O)CO)c1ccncc1Nc1ccc(I)cc1F", "cell viability", "%", 61.7),
    ("Cc1cn([C@@H]2O[C@H](CO)[C@@H](O)[C@@H]2F)c(=O)[nH]c1=O", "cell viability", "%", 121),
]

# map each compound to its cell viability
1. Nc1ncnc2c1c(-c1cnc3[nH]ccc3c1)nn2C1CCCC1
2. CN(NC(=O)CC(=O)NN(C)C(=S)c1ccccc1)C(=S)c1ccccc1
3. CCn1c(-c2nonc2N)nc2cnc(Oc3cccc(NC(=O)c4ccc(OCCN5CCOCC5)cc4)c3)cc21

Out:
1. 114
2. 16.7
3. 95.8

# map each compound to its cell viability
1. O=C(Nc1c(Cl)cncc1Cl)c1ccc(OC(F)F)c(OCC2CC2)c1
2. COc1ncc(-c2ccc3nccc(-c4ccnnc4)c3c2)cc1N[S+](=O)([O-])c1ccc(F)cc1F
3. O=C(O)c1ccc2c(c1)nc(Nc1cccc(Cl)c1)c1ccncc12

Out:
1. 106
2. 72.8
3. 103

Reference source: the supplement of paper PMC11451515
